system: NCI-H460; assay: NCI tumour cell line growth inhibition, 48 h
Activity calls are given as the source filed them. Cut-off read from the data, not from the text of the source: active = GI50 up to about 1.1 µM and inactive = higher.
measure_name: GI50

Example compounds with recorded GI50:
| sample_smiles | GI50 |
| --- | --- |
| CO/N=C(\C)CCC#Cc1ccccc1C(=O)OC | > 10 µM (inactive) |
| Cc1cc(S(=O)(=O)NC2=Nc3cccc(F)c3CN2)c(S)cc1Cl | 36.8 µM (inactive) |
| COc1cc(C)c(C(=O)/C=C/c2cc(OC)c(O)c(OC)c2)cc1O | 25.1 µM (inactive) |

Shift focus to the following entry.
Problem: Please give the measured GI50 for this compound: C[n+]1c(-c2ccc(/C=C/C=N\NC(=O)c3ccc(C(=O)N/N=C\C=C\c4ccc(-c5cn6ccccc6[n+]5C)cc4)cc3)cc2)cn2ccccc21
Solution: > 100 µM (inactive)

----------
system: SK-MEL-2; test: NCI tumour cell line growth inhibition, 48 h
Structures can show the parent of a compound that is named as a salt. Active and inactive are the calls of the source. No stated cut-off is given here; in the data, active = GI50 up to about 1.1 µM and inactive = higher.
Your response should consist of one outcome taken from label 1 for active, label 0 for inactive

Example cases with answers are listed next.
| compound | class |
| --- | --- |
| C=C1c2ccccc2N(S(=O)(=O)c2ccc(C)cc2)C12CCCCC2 | label 0 |
| OC1C2C=CCC1CCC2 (stereo not given) | label 0 |
| CN1C(=O)C(O)C[C@@H]1c1ccc(F)cc1 (stereo not given in full) | label 0 |
| Cc1ccc(C(=O)Nc2ccc(S(=O)(=O)O)c3cc(S(=O)(=O)O)cc(S(=O)(=O)O)c23)cc1NC(=S)Nc1cc(C(=O)Nc2ccc(S(=O)(=O)O)c3cc(S(=O)(=O)O)cc(S(=O)(=O)O)c23)ccc1C | label 0 |

Problem: // return assay outcome for CC(C)(C)/N=c1/n(C(C)(C)C)oc(=O)n1-c1ccccc1
Solution: label 0

Problem: Continue with Cc1cc2c(=O)[nH]nc(N)c2c(N)n1
Solution: label 0

Problem: Continue with Cc1cccc(C(C)(C)C)c1NC(=O)CCc1nnc(S)[nH]1
Solution: label 0

Problem: Continue with CCOC(=O)C1Nc2ccccc2[C@H]2OCC[C@@H]12 (stereo not given in full)
Solution: label 1

Problem: Continue with COCCNc1cncc(C(N)=O)c1
Solution: label 0

Problem: Continue with O=C(CC(=O)n1nc(-c2ccccc2)c(/N=N/c2ccc(Cl)cc2)c1-c1ccccc1)Nc1ccc(Cl)cc1
Solution: label 0

Problem: Continue with COC(=O)c1c2c(cc3c1CCC3)CCC2
Solution: label 0

Problem: Continue with Cc1ccccc1C(=O)c1c(O)c2c(c(O)c1Br)CCCC2
Solution: label 0

Problem: Continue with N=C(N)c1ccc(-c2ccc(-c3ccc(C(=N)N)cc3)o2)cc1 [FURAMIDINE HYDROCHLORIDE]
Solution: label 0

Problem: Continue with O=C(C[n+]1ccccc1)N/N=C(\C(=O)NC1=C(Cl)C(=O)c2ccccc2C1=O)c1c(O)c2ccc(O)cc2oc1=O
Solution: label 0

Problem: Continue with CC1OC=CC(=O)C1O (stereo not given)
Solution: label 0

Problem: Continue with CCC12CCCNC1c1c(n(C)c3ccccc13)C(C(=O)OC)C2 (stereo not given)
Solution: label 0

Problem: Continue with O=C1NCC2(CCNCC2)N1c1ccccc1
Solution: label 0

Problem: Continue with Clc1ccc(OCC2NC3CCC2CC3)cn1 (stereo not given)
Solution: label 0
